Experiment: Thermodynamic equilibrium aqueous solubility assay
Type: physicochemical
Settings: aqueous solvent, pH 7.4, aqueous buffer, thermodynamic from solid; read-out: Aq. sol., mg/mL (pH)
Measured Property: solubility thermodynamic

Consider the following illustrative entries.
| Structure String | solubility thermodynamic |
| --- | --- |
| CC(C)[C@@H](NC(=O)NCC(C)(C)OC(=O)CS(=O)(=O)O)C(=O)N1CC[C@](O)(c2ccc(Cl)cc2)C(C)(C)C1 | > 16 mg/mL |
| CC(C)[C@@H](NC(=O)NCC(C)(C)O)C(=O)N1CC[C@](OCOC(=O)[C@@H](C)O)(c2ccc(Cl)cc2)C(C)(C)C1 | > 0.32 mg/mL |

Here's the next entry for you.
Query string: Suppose we examine the molecule CC(C)[C@@H](NC(=O)NCC(C)(C)OC(=O)OCOC(=O)C1(N)CC1)C(=O)N1CC[C@](O)(c2ccc(Cl)cc2)C(C)(C)C1 ; what solubility thermodynamic value has been reported?
Result string: 0.18 mg/mL

* * *

Assay: Solution stability assay (pH 1.0 and pH 7.4, 37° C.)
Assay type: physicochemical
Details: pH 7.4; conversion of the prodrug to compound 1; 37° C.; read-out: Aq. Stability half-life (pH 1/7.4) Hrs (converted)
Measured Property: half-life

Consider the following illustrative entries.
| Molecule | half-life |
| --- | --- |
| CC(C)[C@@H](NC(=O)NCC(C)(C)OC(=O)CS(=O)(=O)O)C(=O)N1CC[C@](O)(c2ccc(Cl)cc2)C(C)(C)C1 | > 22 h |
| CC(C)[C@@H](NC(=O)NCC(C)(C)O)C(=O)N1CC[C@](OCOP(=O)(O)O)(c2ccc(Cl)cc2)C(C)(C)C1 | > 22 h |
| CC(O)C(=O)OC(C)(C)CNC(=O)N[C@@H](C(=O)N1CC[C@](O)(c2ccc(Cl)cc2)C(C)(C)C1)C(C)C (stereo partly drawn) | > 22 h |
| CCC(=O)OC(C)(C)CNC(=O)N[C@@H](C(=O)N1CC[C@](O)(c2ccc(Cl)cc2)C(C)(C)C1)C(C)C | > 22 h |
| CC(OP(=O)(O)O)C(=O)OC(C)(C)CNC(=O)N[C@@H](C(=O)N1CC[C@](O)(c2ccc(Cl)cc2)C(C)(C)C1)C(C)C (stereo partly drawn) | > 22 h |

Here's the next entry for you.
Query string: Suppose we examine the molecule CC(O)COC(=O)OC(C)(C)CNC(=O)N[C@@H](C(=O)N1CC[C@](O)(c2ccc(Cl)cc2)C(C)(C)C1)C(C)C (stereo partly drawn) ; what half-life value has been reported?
Result string: 30.3 h

* * *

Assay: Solution stability assay (pH 1.0 and pH 7.4, 37° C.)
Assay type: physicochemical
Details: pH 1; conversion of the prodrug to compound 1; 37° C.; read-out: Aq. Stability half-life (pH 1/7.4) Hrs (converted)
The reader will find reported half-life values listed item by item below.

| Structure String | half-life |
| --- | --- |
| CC(C)[C@@H](NC(=O)NCC(C)(C)OC(=O)CCC(=O)O)C(=O)N1CC[C@](O)(c2ccc(Cl)cc2)C(C)(C)C1 | > 22 h |
| CC(C)[C@@H](NC(=O)NCC(C)(C)OC(=O)CS(=O)(=O)O)C(=O)N1CC[C@](O)(c2ccc(Cl)cc2)C(C)(C)C1 | > 22 h |

Here's the next entry for you.
Query string: Suppose we examine the compound CC(C)[C@@H](NC(=O)NCC(C)(C)OC(=O)CCCC(=O)O)C(=O)N1CC[C@](O)(c2ccc(Cl)cc2)C(C)(C)C1 ; what half-life value has been reported?
Result string: > 22 h

* * *

Assay: Thermodynamic equilibrium aqueous solubility assay
Type: physicochemical
Conditions: aqueous solvent, pH 6.5, aqueous buffer, thermodynamic from solid; read-out: Aq. sol., mg/mL (pH)
The reader will find reported solubility thermodynamic values listed item by item below.

| Compound | Measured Result |
| --- | --- |
| CCC(O)CC(=O)OCOC(=O)OC(C)(C)CNC(=O)N[C@@H](C(=O)N1CC[C@](O)(c2ccc(Cl)cc2)C(C)(C)C1)C(C)C (stereo partly drawn) | > 1.6 mg/mL |
| CC(COC(=O)OC(C)(C)CNC(=O)N[C@@H](C(=O)N1CC[C@](O)(c2ccc(Cl)cc2)C(C)(C)C1)C(C)C)OP(=O)(O)O (stereo partly drawn) | > 1.2 mg/mL |
| CC(C)[C@H](N)C(=O)OC(C)(C)CNC(=O)N[C@@H](C(=O)N1CC[C@](O)(c2ccc(Cl)cc2)C(C)(C)C1)C(C)C | > 0.6 mg/mL |
| CC(OP(=O)(O)O)C(=O)OC(C)(C)CNC(=O)N[C@@H](C(=O)N1CC[C@](O)(c2ccc(Cl)cc2)C(C)(C)C1)C(C)C (stereo partly drawn) | > 3.3 mg/mL |

Query string: Suppose we examine the compound CC(C)[C@@H](NC(=O)NCC(C)(C)OC(=O)OCOC(=O)CS(=O)(=O)O)C(=O)N1CC[C@](O)(c2ccc(Cl)cc2)C(C)(C)C1 ; what solubility thermodynamic value has been reported?
Result string: > 0.18 mg/mL

Query string: Suppose we examine the compound CC(C)[C@@H](NC(=O)NCC(C)(C)OC(=O)CCS(=O)(=O)O)C(=O)N1CC[C@](O)(c2ccc(Cl)cc2)C(C)(C)C1 ; what solubility thermodynamic value has been reported?
Result string: > 7 mg/mL

* * *

Experiment: Solution stability assay (pH 1.0 and pH 7.4, 37° C.)
Format: physicochemical
Details: pH 7.4; conversion of the prodrug to compound 1; 37° C.; read-out: Aq. Stability half-life (pH 1/7.4) Hrs (converted)
The reader will find reported half-life values listed item by item below.

| Compound | Measured Property | Measured Result |
| --- | --- | --- |
| CC(C)[C@@H](NC(=O)NCC(C)(C)OC(=O)CCCC(=O)O)C(=O)N1CC[C@](O)(c2ccc(Cl)cc2)C(C)(C)C1 [Example 20] | half-life | > 22 h |
| CC(C)[C@@H](NC(=O)NCC(C)(C)OC(=O)CCS(=O)(=O)O)C(=O)N1CC[C@](O)(c2ccc(Cl)cc2)C(C)(C)C1 [Example 22] | half-life | > 22 h |

Here's the next entry for you.
Query string: Suppose we examine the compound CC(=O)OC(C)(C)CNC(=O)N[C@@H](C(=O)N1CC[C@](O)(c2ccc(Cl)cc2)C(C)(C)C1)C(C)C [Example 4] ; what half-life value has been reported?
Result string: > 22 h

* * *

The reader will find reported half-life values listed item by item below.
Assay: Solution stability assay (pH 1.0 and pH 7.4, 37° C.)
Assay type: physicochemical
Conditions: pH 7.4; conversion of the prodrug to compound 1; 37° C.; read-out: Aq. Stability half-life (pH 1/7.4) Hrs (converted)

Consider the following illustrative entries.
| Structure String | half-life |
| --- | --- |
| CC(C)[C@@H](NC(=O)NCC(C)(C)OC(=O)CCOP(=O)(O)O)C(=O)N1CC[C@](O)(c2ccc(Cl)cc2)C(C)(C)C1 | > 22 h |
| CC(C)[C@H](N)C(=O)OC(C)(C)CNC(=O)N[C@@H](C(=O)N1CC[C@](O)(c2ccc(Cl)cc2)C(C)(C)C1)C(C)C | > 22 h |

Query string: Suppose we examine the compound CC(C)[C@@H](NC(=O)NCC(C)(C)OC(=O)Cc1ccc(OP(=O)(O)O)cc1)C(=O)N1CC[C@](O)(c2ccc(Cl)cc2)C(C)(C)C1 ; what half-life value has been reported?
Result string: > 22 h

* * *

Experiment: Solution stability assay (pH 1.0 and pH 7.4, 37° C.)
Assay type: physicochemical
Conditions: pH 1; conversion of the prodrug to compound 1; 37° C.; read-out: Aq. Stability half-life (pH 1/7.4) Hrs (converted)
The reader will find reported half-life values listed item by item below.

Consider the following illustrative entries.
| Molecule | Measured Result |
| --- | --- |
| COC(=O)CCC(=O)OC(C)(C)CNC(=O)N[C@@H](C(=O)N1CC[C@](O)(c2ccc(Cl)cc2)C(C)(C)C1)C(C)C | > 22 h |
| CC(C)[C@@H](NC(=O)NCC(C)(C)OC(=O)C(N)CS(=O)(=O)O)C(=O)N1CC[C@](O)(c2ccc(Cl)cc2)C(C)(C)C1 (stereo partly drawn) | > 22 h |
| CCC(O)CC(=O)OCOC(=O)OC(C)(C)CNC(=O)N[C@@H](C(=O)N1CC[C@](O)(c2ccc(Cl)cc2)C(C)(C)C1)C(C)C (stereo partly drawn) | > 22 h |
| CC(C)[C@@H](NC(=O)NCC(C)(C)OCOP(=O)(O)O)C(=O)N1CC[C@](O)(c2ccc(Cl)cc2)C(C)(C)C1 | < 1 h |
| CC(=O)OCOC(=O)OC(C)(C)CNC(=O)N[C@@H](C(=O)N1CC[C@](O)(c2ccc(Cl)cc2)C(C)(C)C1)C(C)C | > 22 h |

Query string: Suppose we examine the molecule CCOC(=O)CCC(=O)OC(C)(C)CNC(=O)N[C@@H](C(=O)N1CC[C@](O)(c2ccc(Cl)cc2)C(C)(C)C1)C(C)C ; what half-life value has been reported?
Result string: > 22 h
